Every entry's value here was drawn from patent US11613546B2.

Tested on: MT-4 cells
measurement.protocol: Cytotoxicity assay in MT-4 cells
Type: cell-based
run.conditions: uninfected MT-4 cells, 5 days, Cell Titer Glo; read-out: CC50
measured.quantity: CC50 (µM)
# value in µM; strip the unit string

Query: Would you mind telling me what CC50 value was observed for COC[C@@H]1C=C[C@H](C)N2CN1n1cc(C(=O)NCc3c(F)cc(F)cc3F)c(=O)c(O)c1C2=O [Example C79] ?
Reply: 50

Query: Would you mind telling me what CC50 value was observed for CO[C@@H]1C=C[C@H](C)N2CN1n1cc(C(=O)NCc3c(F)cc(F)cc3F)c(=O)c(O)c1C2=O [Example C46] ?
Reply: 27

Query: Would you mind telling me what CC50 value was observed for C[C@@H]1CCC[C@H](C)N2CN1n1cc(C(=O)NCc3c(F)cc(F)cc3F)c(=O)c(O)c1C2=O [Example C21] ?
Reply: 11.7

Query: Would you mind telling me what CC50 value was observed for O=C(NCc1c(F)cc(F)cc1F)c1cn2c(c(O)c1=O)C(=O)N1Cc3ccc(F)cc3CN2C1 [Example C2] ?
Reply: 12.8

Query: Would you mind telling me what CC50 value was observed for C[C@@H]1[C@H]2C[C@H]2[C@H](C)N2CN1n1cc(C(=O)NCc3c(F)cc(F)cc3F)c(=O)c(O)c1C2=O [Example C88] ?
Reply: 34.3

Query: Would you mind telling me what CC50 value was observed for C[C@H]1CCC[C@H](C)N2CN1C(=O)c1c(O)c(=O)c(C(=O)NCc3c(F)cc(F)cc3F)cn12 [Example C23] ?
Reply: 50

Query: Would you mind telling me what CC50 value was observed for C[C@@H]1C/C=C\CN2CN1n1cc(C(=O)NCc3ccc(F)cc3F)c(=O)c(O)c1C2=O [Example C10] ?
Reply: 7.57

Query: Would you mind telling me what CC50 value was observed for C[C@H]1CCCCN2CN1n1cc(C(=O)NCc3ccc(F)cc3F)c(=O)c(O)c1C2=O [Example C40] ?
Reply: 16

Query: Would you mind telling me what CC50 value was observed for C[C@@H]1C/C=C\CN2CN1n1cc(C(=O)NCc3ccc(F)cc3F)c(=O)c(O)c1C2=O [Example C11] ?
Reply: 9.93

Query: Would you mind telling me what CC50 value was observed for C[C@H]1C=CC(C)(C)N2CN1C(=O)c1c(O)c(=O)c(C(=O)NCc3c(F)cc(F)cc3F)cn12 [Example C48] ?
Reply: 50

Query: Would you mind telling me what CC50 value was observed for C[C@H]1C=C[C@@]2(CCOC2)N2CN1C(=O)c1c(O)c(=O)c(C(=O)NCc3c(F)cc(F)cc3F)cn12 [Example C85] ?
Reply: 29

Query: Would you mind telling me what CC50 value was observed for C[C@H]1CCC(C)(C)N2CN1n1cc(C(=O)NCc3ccc(F)cc3F)c(=O)c(O)c1C2=O [Example C95] ?
Reply: 50

Query: Would you mind telling me what CC50 value was observed for C[C@H]1C/C=C\CN2CN1n1cc(C(=O)NCc3ccc(F)cc3F)c(=O)c(O)c1C2=O [Example C41] ?
Reply: 14.2

Query: Would you mind telling me what CC50 value was observed for C[C@H]1/C=C\C[C@H](C)N2CN1C(=O)c1c(O)c(=O)c(C(=O)NCc3c(F)cc(F)cc3F)cn12 [Example C19] ?
Reply: 10.2

Query: Would you mind telling me what CC50 value was observed for C[C@H]1C=CC(C)(C)N2CN1n1cc(C(=O)NCc3ccc(F)cc3F)c(=O)c(O)c1C2=O [Example C91] ?
Reply: 31

Query: Would you mind telling me what CC50 value was observed for C[C@@H]1C[C@@H](F)[C@@H](F)CN2CN1n1cc(C(=O)NCc3ccc(F)cc3F)c(=O)c(O)c1C2=O (single isomer, unassigned) [Example C38] ?
Reply: 13.6

Query: Would you mind telling me what CC50 value was observed for C[C@H]1C/C=C\CN2CN1n1cc(C(=O)NCc3ccc(F)cc3F)c(=O)c(O)c1C2=O [Example C43] ?
Reply: 6.11

Query: Would you mind telling me what CC50 value was observed for O=C(NCc1c(F)cc(F)cc1F)c1cn2c(c(O)c1=O)C(=O)N1CCCCN2C1 [Example C108] ?
Reply: 22.9

Query: Would you mind telling me what CC50 value was observed for C[C@H]1CC[C@H](C)N2CN1C(=O)c1c(O)c(=O)c(C(=O)NCc3c(F)cc(F)cc3F)cn12 [Example C28] ?
Reply: 6.87

Query: Would you mind telling me what CC50 value was observed for C[C@H]1C=CC(C)(C)N2CN1n1cc(C(=O)NCc3ccc(F)cc3F)c(=O)c(O)c1C2=O [Example C92] ?
Reply: 17.5

Query: Would you mind telling me what CC50 value was observed for O=C(NCc1c(F)cc(F)cc1F)c1cn2c(c(O)c1=O)C(=O)N1Cc3ccc(F)cc3CN2C1 [Example C4] ?
Reply: 12

Query: Would you mind telling me what CC50 value was observed for C[C@H]1/C=C\C[C@H](C)N2CN1C(=O)c1c(O)c(=O)c(C(=O)NCc3c(F)cc(F)cc3F)cn12 [Example C20] ?
Reply: 16.6

Query: Would you mind telling me what CC50 value was observed for C[C@@H]1[C@H]2C[C@H]2[C@H](C)N2CN1n1cc(C(=O)NCc3c(F)cc(F)cc3F)c(=O)c(O)c1C2=O [Example C89] ?
Reply: 37.2

Query: Would you mind telling me what CC50 value was observed for O=C(NCc1c(F)cc(F)cc1F)c1cn2c(c(O)c1=O)C(=O)N1Cc3cc(F)ccc3CN2C1 [Example C1] ?
Reply: 10.1

Query: Would you mind telling me what CC50 value was observed for C[C@@H]1C=C[C@H](CF)N2CN1n1cc(C(=O)NCc3ccc(F)cc3F)c(=O)c(O)c1C2=O [Example C49a] ?
Reply: 11.3

Query: Would you mind telling me what CC50 value was observed for C[C@H]1CCC(C)(C)N2CN1n1cc(C(=O)NCc3ccc(F)cc3F)c(=O)c(O)c1C2=O [Example C94] ?
Reply: 50

Query: Would you mind telling me what CC50 value was observed for C[C@H]1CC[C@@H](C(F)F)N2CN1C(=O)c1c(O)c(=O)c(C(=O)NCc3c(F)cc(F)cc3F)cn12 [Example C78] ?
Reply: 13.7

Query: Would you mind telling me what CC50 value was observed for C[C@@H]1C(F)=C[C@H](C)N2CN1n1cc(C(=O)NCc3c(F)cc(F)cc3F)c(=O)c(O)c1C2=O [Example C36] ?
Reply: 16.6

Query: Would you mind telling me what CC50 value was observed for C[C@H]1CC[C@H](C)N2CN1C(=O)c1c(O)c(=O)c(C(=O)NCc3c(F)cc(F)cc3F)cn12 [Example C66] ?
Reply: 10.4
